The following molecules are listed with their measured TGI values.
# Test system: SW-620 colon
# test.name: NCI tumour cell line growth inhibition, 48 h

O=[N+]([O-])c1ccc(N=Nc2c(O)ccc3cc(S(=O)(=O)O)cc(S(=O)(=O)O)c23)cc1; > 100 µM

Request: Determine its reported TGI: CCNC(=S)NNC(=O)c1nsc2ccccc12
Response: > 100 µM

Request: Determine its reported TGI: CN(C)C=C1C(=O)N(C)C(=O)N(C)C1=O
Response: > 100 µM

====

# System: MALME-3M melanoma
# test.name: NCI tumour cell line growth inhibition, 48 h
endpoint: TGI

# example entries with known answers
CC1(C)OCC(C2CCC3(C)C4=CCC5C(C)(C)C(O)CCC5(C)C4CCC23C)CC(O)C1O (stereo not given); 30.6 µM
Cc1ccc(N(C)S(=O)(=O)c2ccc([N+](=O)[O-])cc2)cc1; > 100 µM
COc1cc(C2c3cc4c(cc3OC(N3CCCCC3)C2C)OCO4)cc(OC)c1OC (stereo not given); > 84.6 µM
C=C(C)[C@@H]1CC[C@]2(CNCCO)CC[C@]3(C)[C@H](CC[C@@H]4[C@@]5(C)CCC(N)[C@@](C)(CO)[C@@H]5CC[C@]43C)[C@@H]12 (stereo not given in full); 3.31 µM
O=C1/C(=C/c2cccc(O)c2)COc2ccccc21; 26.3 µM

Request: Determine its reported TGI: O=c1c2cc(I)ccc2nc(-c2cccs2)n1-c1ccc(S(=O)(=O)Nc2nccs2)cc1
Response: 99.9 µM

Request: Determine its reported TGI: Cc1ccccc1N=Nc1cc(C)c(N=Nc2c(O)ccc3ccccc23)cc1C
Response: > 100 µM

Request: Determine its reported TGI: C=CCN(C(=O)OC(C)(C)C)C1=CC2C(C)=CN(S(=O)(=O)c3ccccc3)C2C(OCc2ccccc2)=C1 (stereo not given)
Response: > 100 µM

Request: Determine its reported TGI: CCCCCC(/C=N/Nc1ccccc1)C(O)(C(F)(F)F)C(F)(F)F (stereo not given)
Response: > 100 µM

Request: Determine its reported TGI: CCOC(=O)N1C=NC23C(c4ccccc4)C(c4ccccc4)C12C(=O)N(C)C(=O)N3C (stereo not given)
Response: > 100 µM

Request: Determine its reported TGI: O=C1Nc2c(Cl)cc(Cl)cc2/C1=N/N=C/c1ccccc1O
Response: 88.4 µM

Request: Determine its reported TGI: c1ccc(N=C2SC(c3ccccc3)(c3ccccc3)c3ccccc32)cc1
Response: > 100 µM
